B1: library; a variant is named by its letters at N, in order (parent)
chain: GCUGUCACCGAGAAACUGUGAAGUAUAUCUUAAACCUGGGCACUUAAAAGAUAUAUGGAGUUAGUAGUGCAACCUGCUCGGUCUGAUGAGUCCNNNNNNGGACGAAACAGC

- Variants of: B1
- ASSAY REMARKS: normalized RNA/DNA level without ligand (relative to sTRSVctl = 100) (log10 (% of sTRSVctl)); HEK293T; ligand: cyclic di-GMP (c-di-GMP-II aptamer); higher = less ribozyme self-cleavage, higher mRNA level
- CONDITIONS: reporter: mCherry (pCS4076), ligand present: no
MEASUREMENT LABEL: normalized RNA/DNA level without ligand (log10)

# RESIDUE SEQUENCE, MEASURED RESULT
rows = [
    ("GCUGUCACCGAGAAACUGUGAAGUAUAUCUUAAACCUGGGCACUUAAAAGAUAUAUGGAGUUAGUAGUGCAACCUGCUCGGUCUGAUGAGUCCUCUUCAGGACGAAACAGC [UCUUCA]", 1.75),
    ("GCUGUCACCGAGAAACUGUGAAGUAUAUCUUAAACCUGGGCACUUAAAAGAUAUAUGGAGUUAGUAGUGCAACCUGCUCGGUCUGAUGAGUCCGUCUCGGGACGAAACAGC [GUCUCG]", 1.87),
    ("GCUGUCACCGAGAAACUGUGAAGUAUAUCUUAAACCUGGGCACUUAAAAGAUAUAUGGAGUUAGUAGUGCAACCUGCUCGGUCUGAUGAGUCCUCGCCUGGACGAAACAGC [UCGCCU]", 1.76),
    ("GCUGUCACCGAGAAACUGUGAAGUAUAUCUUAAACCUGGGCACUUAAAAGAUAUAUGGAGUUAGUAGUGCAACCUGCUCGGUCUGAUGAGUCCAAAUUUGGACGAAACAGC [AAAUUU]", 1.67),
    ("GCUGUCACCGAGAAACUGUGAAGUAUAUCUUAAACCUGGGCACUUAAAAGAUAUAUGGAGUUAGUAGUGCAACCUGCUCGGUCUGAUGAGUCCACAAACGGACGAAACAGC [ACAAAC]", 1.55),
    ("GCUGUCACCGAGAAACUGUGAAGUAUAUCUUAAACCUGGGCACUUAAAAGAUAUAUGGAGUUAGUAGUGCAACCUGCUCGGUCUGAUGAGUCCCAGUUAGGACGAAACAGC [CAGUUA]", 1.28),
    ("GCUGUCACCGAGAAACUGUGAAGUAUAUCUUAAACCUGGGCACUUAAAAGAUAUAUGGAGUUAGUAGUGCAACCUGCUCGGUCUGAUGAGUCCAUACGGGGACGAAACAGC [AUACGG]", 1.58),
    ("GCUGUCACCGAGAAACUGUGAAGUAUAUCUUAAACCUGGGCACUUAAAAGAUAUAUGGAGUUAGUAGUGCAACCUGCUCGGUCUGAUGAGUCCGUUGGGGGACGAAACAGC [GUUGGG]", 1.6),
    ("GCUGUCACCGAGAAACUGUGAAGUAUAUCUUAAACCUGGGCACUUAAAAGAUAUAUGGAGUUAGUAGUGCAACCUGCUCGGUCUGAUGAGUCCUCGCAGGGACGAAACAGC [UCGCAG]", 1.76),
    ("GCUGUCACCGAGAAACUGUGAAGUAUAUCUUAAACCUGGGCACUUAAAAGAUAUAUGGAGUUAGUAGUGCAACCUGCUCGGUCUGAUGAGUCCCACCUGGGACGAAACAGC [CACCUG]", 1.76),
    ("GCUGUCACCGAGAAACUGUGAAGUAUAUCUUAAACCUGGGCACUUAAAAGAUAUAUGGAGUUAGUAGUGCAACCUGCUCGGUCUGAUGAGUCCUAAGUCGGACGAAACAGC [UAAGUC]", 1.66),
    ("GCUGUCACCGAGAAACUGUGAAGUAUAUCUUAAACCUGGGCACUUAAAAGAUAUAUGGAGUUAGUAGUGCAACCUGCUCGGUCUGAUGAGUCCCGGUUGGGACGAAACAGC [CGGUUG]", 1.68),
    ("GCUGUCACCGAGAAACUGUGAAGUAUAUCUUAAACCUGGGCACUUAAAAGAUAUAUGGAGUUAGUAGUGCAACCUGCUCGGUCUGAUGAGUCCACGAAUGGACGAAACAGC [ACGAAU]", 1.31),
    ("GCUGUCACCGAGAAACUGUGAAGUAUAUCUUAAACCUGGGCACUUAAAAGAUAUAUGGAGUUAGUAGUGCAACCUGCUCGGUCUGAUGAGUCCUUAUCGGGACGAAACAGC [UUAUCG]", 1.78),
    ("GCUGUCACCGAGAAACUGUGAAGUAUAUCUUAAACCUGGGCACUUAAAAGAUAUAUGGAGUUAGUAGUGCAACCUGCUCGGUCUGAUGAGUCCUGUUUAGGACGAAACAGC [UGUUUA]", 1.74),
    ("GCUGUCACCGAGAAACUGUGAAGUAUAUCUUAAACCUGGGCACUUAAAAGAUAUAUGGAGUUAGUAGUGCAACCUGCUCGGUCUGAUGAGUCCUGGUUCGGACGAAACAGC [UGGUUC]", 1.7),
    ("GCUGUCACCGAGAAACUGUGAAGUAUAUCUUAAACCUGGGCACUUAAAAGAUAUAUGGAGUUAGUAGUGCAACCUGCUCGGUCUGAUGAGUCCUAGUGAGGACGAAACAGC [UAGUGA]", 1.63),
    ("GCUGUCACCGAGAAACUGUGAAGUAUAUCUUAAACCUGGGCACUUAAAAGAUAUAUGGAGUUAGUAGUGCAACCUGCUCGGUCUGAUGAGUCCGACAGGGGACGAAACAGC [GACAGG]", 1.76),
    ("GCUGUCACCGAGAAACUGUGAAGUAUAUCUUAAACCUGGGCACUUAAAAGAUAUAUGGAGUUAGUAGUGCAACCUGCUCGGUCUGAUGAGUCCACCCCUGGACGAAACAGC [ACCCCU]", 1.74),
    ("GCUGUCACCGAGAAACUGUGAAGUAUAUCUUAAACCUGGGCACUUAAAAGAUAUAUGGAGUUAGUAGUGCAACCUGCUCGGUCUGAUGAGUCCUUCGUGGGACGAAACAGC [UUCGUG]", 1.71),
    ("GCUGUCACCGAGAAACUGUGAAGUAUAUCUUAAACCUGGGCACUUAAAAGAUAUAUGGAGUUAGUAGUGCAACCUGCUCGGUCUGAUGAGUCCUCCACGGGACGAAACAGC [UCCACG]", 1.77),
    ("GCUGUCACCGAGAAACUGUGAAGUAUAUCUUAAACCUGGGCACUUAAAAGAUAUAUGGAGUUAGUAGUGCAACCUGCUCGGUCUGAUGAGUCCCUGCUAGGACGAAACAGC [CUGCUA]", 1.4),
]
